# tested system: recombinantly expressed human PARP-1 enzyme (Homo sapiens, UniProt P09874)
# Sequence (P09874 whole entry): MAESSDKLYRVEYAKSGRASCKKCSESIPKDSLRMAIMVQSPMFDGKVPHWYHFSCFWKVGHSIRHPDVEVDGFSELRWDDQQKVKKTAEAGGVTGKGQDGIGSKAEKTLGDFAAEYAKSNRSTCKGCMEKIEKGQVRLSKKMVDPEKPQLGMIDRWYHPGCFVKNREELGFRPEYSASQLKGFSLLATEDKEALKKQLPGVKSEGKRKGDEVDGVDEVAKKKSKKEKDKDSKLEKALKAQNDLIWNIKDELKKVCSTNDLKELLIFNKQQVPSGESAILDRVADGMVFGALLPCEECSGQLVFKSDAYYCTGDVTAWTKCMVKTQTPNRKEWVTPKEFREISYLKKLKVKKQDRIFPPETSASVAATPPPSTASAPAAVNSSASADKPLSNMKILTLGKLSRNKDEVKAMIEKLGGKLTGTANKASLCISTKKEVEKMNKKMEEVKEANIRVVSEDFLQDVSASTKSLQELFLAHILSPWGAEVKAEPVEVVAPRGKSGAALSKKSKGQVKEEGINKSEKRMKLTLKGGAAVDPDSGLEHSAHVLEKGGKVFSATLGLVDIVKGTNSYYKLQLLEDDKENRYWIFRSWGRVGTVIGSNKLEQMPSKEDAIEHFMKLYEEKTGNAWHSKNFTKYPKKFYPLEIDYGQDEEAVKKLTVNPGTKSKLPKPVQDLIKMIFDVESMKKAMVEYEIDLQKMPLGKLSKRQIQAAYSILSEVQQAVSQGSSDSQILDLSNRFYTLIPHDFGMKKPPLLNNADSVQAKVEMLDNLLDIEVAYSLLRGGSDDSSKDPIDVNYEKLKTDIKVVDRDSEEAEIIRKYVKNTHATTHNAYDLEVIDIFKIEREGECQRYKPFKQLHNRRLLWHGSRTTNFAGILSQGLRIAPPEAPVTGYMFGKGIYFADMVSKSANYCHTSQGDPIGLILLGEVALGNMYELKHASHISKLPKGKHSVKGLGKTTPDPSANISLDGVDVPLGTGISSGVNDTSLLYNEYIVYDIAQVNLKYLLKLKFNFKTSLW
# experiment notes: PARP enzyme assay, Method B (tritium-labeled NAD incorporation)
# Type: biochemical
# stated conditions: Method B; 200 μM NAD, room temperature 1 hour, pH 8.0; read-out: IC50 (μM)/Method B
Structures can show the parent of a compound that is named as a salt.
Mark TRUE only when IC50 stays strictly below 1 µM. Values equal to the cut-off are FALSE.

| molecule | label class |
| --- | --- |
| CCc1cc(-c2ccc(CN3CCCC3)o2)c(C)[nH]c1=O | TRUE |
| CCCCNC(=O)c1cccc(-c2cc(CC)c(=O)[nH]c2C)n1 | FALSE |
| CCc1cc(-c2ccc(CN(C)Cc3ccccc3)o2)c(C)[nH]c1=O | FALSE |
| CCc1cc(-c2cncc(C(=O)N3CCN(C(=O)C4CC4)CC3)c2)c(C)[nH]c1=O | FALSE |
| CCc1cc(-c2ccc(CNC(=O)CN3CCCC3)s2)c(C)[nH]c1=O | TRUE |
| CCc1cc(-c2cncc(C(=O)Nc3cc(C(C)(C)C)on3)c2)c(C)[nH]c1=O | TRUE |
| CCc1cc(-c2cncc(C(=O)NCCc3ccccn3)c2)c(C)[nH]c1=O | FALSE |
| CCc1cc(-c2ccc(S(=O)(=O)NCCc3ccccn3)s2)c(C)[nH]c1=O [Example 43A] | TRUE |
| CCc1cc(-c2cncc(C(=O)NCC(=O)c3ccccc3)c2)c(C)[nH]c1=O | TRUE |
| CCc1cc(-c2ccc(S(=O)(=O)NCc3c[nH]c4ccccc34)s2)c(C)[nH]c1=O [Example 122D] | TRUE |
| CCc1cc(-c2ccc(CO)o2)c(C)[nH]c1=O [Example 200A] | FALSE |
| CCc1cc(-c2cncc(C(=O)NCCc3ccccc3)c2)c(C)[nH]c1=O | TRUE |
| CCc1cc(-c2cncc(C(=O)NC(CC)c3ccc(C)nc3)c2)c(C)[nH]c1=O (stereo not shown) | FALSE |
| CCc1cc(-c2cncc(C(=O)NCC(=O)c3ccc(OC)cc3)c2)c(C)[nH]c1=O | TRUE |
| CCc1cc(-c2cncc(C(=O)N3CC(O)CC3C(=O)OC)c2)c(C)[nH]c1=O (stereo not shown) | FALSE |
| CCc1cc(-c2ccc(C(C)O)o2)c(C)[nH]c1=O (stereo not shown) | FALSE |
| CCc1cc(-c2cncc(C(=O)NCCc3ccc(S(N)(=O)=O)cc3)c2)c(C)[nH]c1=O | FALSE |
| CCc1cc(-c2cncc(C(=O)NCCc3ccc(C(=O)O)cc3)c2)c(C)[nH]c1=O | FALSE |
| CCc1cc(-c2cncc(C(=O)NCc3ccccc3)c2)c(C)[nH]c1=O | FALSE |
| CCc1cc(-c2ccc(CNC(=O)c3cccc(N(C)C)c3)o2)c(C)[nH]c1=O | FALSE |
| CCc1cc(-c2cncc(C(=O)NCc3ccc(O)c(OC)c3)c2)c(C)[nH]c1=O | FALSE |
| CCc1cc(-c2cncc(C(=O)N(CC)CC)c2)c(C)[nH]c1=O | FALSE |
| CCc1cc(-c2ccc(S(=O)(=O)N3CCN(c4ncccn4)CC3)s2)c(C)[nH]c1=O [Example 117, hydrochloride] | FALSE |
| CCc1cc(-c2ccc(CNC(=O)c3ccccn3)o2)c(C)[nH]c1=O | FALSE |
| CCc1cc(-c2ccc(C=NOCCN3CCCC3)o2)c(C)[nH]c1=O [Example 199, hydrochloride] | TRUE |
| CCc1cc(-c2ccc(S(=O)(=O)NCc3ccc(OC)cc3)s2)c(C)[nH]c1=O [Example 122B] | TRUE |
| CCc1cc(-c2ccc(S(=O)(=O)NCc3ccccc3)s2)c(C)[nH]c1=O [Example 122A] | FALSE |
| CCc1cc(-c2ccc(CNCCc3ccc(Cl)c(S(N)(=O)=O)c3)o2)c(C)[nH]c1=O [Example 182C] | TRUE |
| CCc1cc(-c2cncc(C(=O)NCC(N)=O)c2)c(C)[nH]c1=O | FALSE |
| CCc1cc(-c2ccc(CNC(=O)Cc3ccccc3)o2)c(C)[nH]c1=O | FALSE |
| CCc1cc(-c2ccc(CNCc3ccccc3OC(F)(F)F)o2)c(C)[nH]c1=O [Example 182E] | FALSE |
| CCc1cc(-c2cccc(CN3CCC(O)CC3)n2)c(C)[nH]c1=O [Example 182I] | FALSE |
| CCc1cc(-c2cncc(C(=O)NCCc3ccc([N+](=O)[O-])cc3)c2)c(C)[nH]c1=O | TRUE |
| CCc1cc(-c2cncc(C(=O)NCCC3CCOCC3)c2)c(C)[nH]c1=O | FALSE |

###

# tested system: recombinant human PARP (PARP1) (Homo sapiens)
# Construct: Full length human PARP (PARP1) is assembled from PCR fragments; His6 tag with TEV site, from the pFastBac-HTb vector (own knowledge of the vector); made in house; host or cells: insect cells, baculovirus (Bac-to-Bac, Gibco-BRL)
# Sequence (P09874 whole entry, the tested form may be a part): as the sequence (P09874 whole entry) above
# experiment notes: PARP enzyme assay, Method A (radioactivity or 'ELISA' enzyme assay with partially purified enzyme)
# Format: biochemical
# stated conditions: recombinant human PARP preparation, radioactive or ELISA enzyme assay
Structures can show the parent of a compound that is named as a salt.
IC50 vs 0.6 µM: less than gives Met; not less than gives Not met.

| molecule | tested system | label class |
| --- | --- | --- |
| CCc1cc(-c2ccc(S(=O)(=O)N3CCN(c4ccccc4)CC3)s2)c(C)[nH]c1=O | recombinant human PARP (PARP1) (Homo sapiens) | Not met |
| CCc1cc(-c2ccc(CN3CCC(N4CCCCC4)CC3)s2)c(C)[nH]c1=O [Example 129, dihydrochloride] | recombinant human PARP (PARP1) (Homo sapiens) | Not met |
| CCc1cc(-c2ccc(CNCc3cccc(C)c3)s2)c(C)[nH]c1=O [Example 165, hydrochloride] | recombinant human PARP (PARP1) (Homo sapiens) | Not met |
| CCc1cc(-c2ncno2)c(C)[nH]c1=O | recombinant human PARP (PARP1) (Homo sapiens) | Not met |
| CCc1cc(-c2ccc(CNC3CCN(Cc4ccccc4)CC3)s2)c(C)[nH]c1=O [Example 151, dihydrochloride] | recombinant human PARP (PARP1) (Homo sapiens) | Not met |
| CCc1cc(-c2ccc(CNCc3cccc(OC)c3)s2)c(C)[nH]c1=O [Example 167, hydrochloride] | recombinant human PARP (PARP1) (Homo sapiens) | Met |
| CCc1cc(-c2ccc(CNCC3CCN(Cc4cc(F)cc(F)c4)CC3)s2)c(C)[nH]c1=O [Example 140, hydrochloride] | recombinant human PARP (PARP1) (Homo sapiens) | Not met |
| CCc1cc(-c2ccc(CNCc3ccncc3)s2)c(C)[nH]c1=O [Example 152, dihydrochloride] | recombinant human PARP (PARP1) (Homo sapiens) | Not met |
| CCc1cc(-c2ccc(CN3CCCC3)s2)c(C)[nH]c1=O [Example 171, hydrochloride] | recombinant human PARP (PARP1) (Homo sapiens) | Met |
| CCc1cc(-c2ccc(CNCc3ccccc3Cl)s2)c(C)[nH]c1=O [Example 188, hydrochloride] | recombinant human PARP (PARP1) (Homo sapiens) | Not met |
| CCc1cc(-c2ccc(CN(C)C3CCN(C)C3)s2)c(C)[nH]c1=O (stereo not shown) [Example 133, dihydrochloride] | recombinant human PARP (PARP1) (Homo sapiens) | Not met |
| CCc1cc(-c2ccc(S(=O)(=O)NCc3cccnc3)s2)c(C)[nH]c1=O [Example 101, hydrochloride] | recombinant human PARP (PARP1) (Homo sapiens) | Met |
| CCc1cc(-c2ccc(S(=O)(=O)N3CCN(Cc4ccccc4)CC3)s2)c(C)[nH]c1=O [Example 100, hydrochloride] | recombinant human PARP (PARP1) (Homo sapiens) | Not met |
| CCc1cc(-c2ccc(CNC(C)C(C)C)s2)c(C)[nH]c1=O (stereo not shown) [Example 147, hydrochloride] | recombinant human PARP (PARP1) (Homo sapiens) | Met |
| CCc1cc(-c2ccc(S(=O)(=O)NCC(c3cccnc3)N3CCOCC3)s2)c(C)[nH]c1=O (stereo not shown) [Example 72, dihydrochloride] | recombinant human PARP (PARP1) (Homo sapiens) | Not met |

###

# tested system: recombinantly expressed human PARP-1 enzyme (Homo sapiens)
# experiment notes: PARP enzyme assay, Method B (tritium-labeled NAD incorporation)
# Assay type: biochemical
# stated conditions: Method B; 200 μM NAD, room temperature 1 hour, pH 8.0; read-out: IC50 (μM)/Method B
Below: a set of entries, each annotated with reported IC50.
assay readout: IC50 (µM)

| smiles | tested system | assay value |
| --- | --- | --- |
| CCc1cc(-c2cccc(C(=O)NCCc3ccc([N+](=O)[O-])cc3)n2)c(C)[nH]c1=O | recombinantly expressed human PARP-1 enzyme (Homo sapiens) | 0.57 |
| CCc1cc(-c2ccc(C(=O)NCc3ccccn3)cn2)c(C)[nH]c1=O | recombinantly expressed human PARP-1 enzyme (Homo sapiens) | 14.8 |
| CCc1cc(-c2cncc(C(=O)NCCn3c([N+](=O)[O-])cnc3C)c2)c(C)[nH]c1=O | recombinantly expressed human PARP-1 enzyme (Homo sapiens) | 5 |
| CCc1cc(-c2cncc(C(=O)NCc3cccnc3)c2)c(C)[nH]c1=O | recombinantly expressed human PARP-1 enzyme (Homo sapiens) | 0.75 |
